# system: Eukaryotic translation initiation factor 4E (Mus musculus)
# Sequence (P63073 whole entry): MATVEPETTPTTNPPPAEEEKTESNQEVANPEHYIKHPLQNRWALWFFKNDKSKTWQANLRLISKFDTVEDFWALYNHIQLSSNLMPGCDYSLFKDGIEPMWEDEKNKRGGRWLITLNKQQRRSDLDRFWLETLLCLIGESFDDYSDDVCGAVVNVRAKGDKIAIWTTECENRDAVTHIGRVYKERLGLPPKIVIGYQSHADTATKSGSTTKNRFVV
# test-protocol: blockers of eIF4G binding by eIF4E – biochemical, TR-FRET, dose response (AID 855);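 further: potency for disrupting eIF4E binding to eIF4GI seen as loss of FRET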
# Format: functional
Active and inactive are the calls of the source. How the calls were made is not given here.
Measured IC50, listed per entry.

1. CC1CCN(C(=S)c2ccccc2O)CC1	> 64 µM (inactive)

Reported IC50 of CCOc1cc(C2c3c(C)n[nH]c3C(=O)N2c2ccc(C)cc2)ccc1O (centres undefined) : > 64 µM (inactive)

So for Cc1ccccc1-n1sc2cc(F)ccc2c1=O , the logged IC50 turned out to be 36.7 µM (inactive)

IC50 for COc1ccc(-n2cccc2/C=C2\C(=N)N3N=C(c4ccco4)SC3=NC2=O)cc1 is 50 µM (inactive)
